The origin of these recorded values is the supplement of paper PMC10567573.

B1: FAM107A (parent)
chain: HRRGLGVDSKPELQRVLEHRRRNQ

Variants of: B1
Measurement Notes: protein stability index of a GFP-peptide fusion (GPS, HEK-293T) (PSI 1-6); higher = more stable;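 further: lentivirally expressed fusions sorted by FACS into six bins by GFP to DsRed ratio, PSI derived from sequencing read proportions per bin multiplied by bin number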
Condition Set: c terminus: a fixed tail appended

Sequence String: HRRGLGSDSKPELQRVLEHRRRNQ [V7S]
protein stability index: 4.88
//
Sequence String: HRRGLGVDSKPELQRVLEHWRRNQ [R20W]
protein stability index: 3.47
//
Sequence String: HRRGLGVDSKPELQRVEEHRRRNQ [L17E]
protein stability index: 4.21
//
Sequence String: HRRGLGVDSKPELQQVLEHRRRNQ [R15Q]
protein stability index: 3.56
//
Sequence String: PRRGLGVDSKPELQRVLEHRRRNQ [H1P]
protein stability index: 2
